System: HCT-15 colon
Assay: NCI-60 one-dose screen, 48 h (100 = growth as untreated, 0 = no growth, -100 = all killed)
Details: 10 µM unless noted
Compounds without any hit were thinned out: in the full panel of roughly 83,000, 20% have a hit.

smiles entry | growth (%)
Nc1ccc2[nH]c(-c3ccccc3)cc(=O)c2c1 | 73.7
O=C(O)CCCCc1ccc([N+](=O)[O-])cc1 | 101
Fc1ccccc1Nc1n[nH]c(=S)s1 | 98.3

====

System: RPMI-8226 leukemia
Assay: NCI-60 one-dose screen, 48 h
Conditions: 10 µM unless noted
The panel holds about 83,000 compounds, 20% with a hit somewhere; the sample as a whole holds those more often. The source made the active and inactive calls. How the source made its calls: active means growth percent below 10; inactive means the rest.
Possible outcomes: active, inactive

compound | system tested | category label
O=C=NC(c1ccccc1)(c1ccccc1)c1ccccc1 | RPMI-8226 leukemia | inactive
O=C(CN1CCN(c2cc3c(cc2F)c(=O)c(C(=O)O)cn3C2CC2)CC1)Nc1ccc(Cl)cc1 | RPMI-8226 leukemia | inactive
N=C1N=C(N)CS1 | RPMI-8226 leukemia | inactive
Cn1c(=O)c2[nH]c(CCCCCCCCc3nc4ccccc4[nH]3)nc2n(C)c1=O | RPMI-8226 leukemia | inactive
CCCCCCCCCCCCCCCCOc1ccc(C)cc1 | RPMI-8226 leukemia | inactive
Oc1c(CN2CCCCC2)ccc2cccnc12 | RPMI-8226 leukemia | inactive
Cc1cccc(/C=C\C(=O)c2ccccc2)c1 | RPMI-8226 leukemia | inactive
Cc1[nH]c(-c2nc3ccccc3[nH]2)c(C)c1C(=O)NC(C)C1CCCCC1 (stereo not drawn) | RPMI-8226 leukemia | active
Cc1ccc(S(=O)(=O)Nc2nc3ccccc3nc2Nc2ccc3nsnc3c2)cc1 | RPMI-8226 leukemia | inactive
CN(Cc1ccccc1)Cc1ccccc1 | RPMI-8226 leukemia | inactive
ClC/C=C/CSc1ncnc2nc[nH]c12 | RPMI-8226 leukemia | inactive
COc1ccc2ccccc2c1/C=N/N1CCCCC1 | RPMI-8226 leukemia | inactive
Clc1nc(Oc2ccccc2)nc(-c2cn(-c3ccccc3)c3ccccc23)n1 | RPMI-8226 leukemia | inactive
Cc1ccc(NCSc2ccc(Cl)cc2)cc1 | RPMI-8226 leukemia | inactive
COc1ccc(NC(=S)Nc2ccccn2)cc1 | RPMI-8226 leukemia | inactive
CN(C)c1ccc(C(=C2C=CC(=[N+](C)C)C=C2)c2ccccc2Cl)cc1 | RPMI-8226 leukemia | active
N#C/C(=C/c1c(O)ccc2ccccc12)C(N)=O | RPMI-8226 leukemia | inactive
O=[N+]([O-])c1ccc2nc3c4ccccc4c4ccccc4c3nc2c1 | RPMI-8226 leukemia | inactive
C1CCCCNCCC1 | RPMI-8226 leukemia | inactive
CC(=O)Nc1ccc(O)cc1 | RPMI-8226 leukemia | inactive
Nc1ccc2[nH]c(-c3ccccc3)cc(=O)c2c1 | RPMI-8226 leukemia | inactive
C/C(=N\NC(=O)c1ccncc1)c1ccccc1O | RPMI-8226 leukemia | inactive
c1ccc(N(c2ccccc2)c2ccccc2)cc1 | RPMI-8226 leukemia | inactive
N#C/C(=C1C=C/C(=N/O)C(Br)=C/1)c1ccccc1 | RPMI-8226 leukemia | active
Cc1ccc(S(=O)(=O)NCN2C(=O)c3ccccc3C2=O)cc1 | RPMI-8226 leukemia | inactive
Oc1ccccc1C=NCC1CCC(CN=Cc2ccccc2O)CC1 (stereo not drawn) | RPMI-8226 leukemia | inactive
CC12CCC(CC1)C(C)(C)O2 | RPMI-8226 leukemia | inactive
Cc1ccc(-c2noc(C)n2)cc1 | RPMI-8226 leukemia | inactive
